Some compounds, each annotated with its measured Minimum inhibitory concentration.
Tested on: Serratia marcescens clinical strains
Type: cell-based
Parameters: unit: μg/ml
conditionContext: Serratia marcescens clinical strain 5; microdilution, Muller Hinton broth-cation adjusted, 0.02% BSA, 0.2% acetic acid
Square brackets hold non-standard residues; d marks the D form. Peptide text beside a SMILES is read from it.

{"compound": "CC[C@@H](C)[C@@H](N)C(=O)N[C@H](Cc1c[nH]c2ccccc12)C(=O)N[C@H](CCCCN)C(=O)N[C@H](CCCNC(=N)N)C(=O)N[C@H](Cc1ccccc1)C(=O)N[C@H](CCCNC(=N)N)C(=O)N[C@H](CC(C)C)C(=O)N[C@H](Cc1ccccc1)C(=O)N[C@H](CCCCN)C(=O)N[C@H](CCCCN)C(=O)N[C@H](Cc1c[nH]c2ccccc12)C(=O)O [Chain304D] (H-[dI][dW][dK][dR][dF][dR][dL][dF][dK][dK][dW]-OH)", "Minimum inhibitory concentration": ">128"}
{"compound": "CC(C)C[C@@H](NC(=O)[C@@H](CCCCN)NC(=O)[C@@H](CCCCN)NC(=O)[C@@H](Cc1ccccc1)NC(=O)[C@@H](CC(C)C)NC(=O)[C@@H](Cc1c[nH]c2ccccc12)NC(=O)[C@@H](CCCNC(=N)N)NC(=O)[C@@H](Cc1c[nH]c2ccccc12)NC(=O)[C@@H](CCCCN)NC(=O)[C@@H](CCCNC(=N)N)NC(=O)[C@H](N)CCCCN)C(=O)O [Chain310D] (H-[dK][dR][dK][dW][dR][dW][dL][dF][dK][dK][dL]-OH)", "Minimum inhibitory concentration": ">128"}
{"compound": "CC(C)C[C@@H](NC(=O)[C@H](N)CCCNC(=N)N)C(=O)N[C@H](CCCCN)C(=O)N[C@H](Cc1c[nH]c2ccccc12)C(=O)N[C@H](Cc1ccccc1)C(=O)N[C@H](Cc1c[nH]c2ccccc12)C(=O)N[C@H](CC(C)C)C(=O)N[C@H](Cc1ccccc1)C(=O)N[C@H](CCCNC(=N)N)C(=O)N[C@H](CCCCN)C(=O)N[C@H](CCCNC(=N)N)C(=O)O [Chain307D] (H-[dR][dL][dK][dW][dF][dW][dL][dF][dR][dK][dR]-OH)", "Minimum inhibitory concentration": ">128"}
{"compound": "CC(C)C[C@@H](NC(=O)[C@H](N)CCCCN)C(=O)N[C@H](CCCCN)C(=O)N[C@H](Cc1c[nH]c2ccccc12)C(=O)N[C@H](Cc1ccccc1)C(=O)N[C@H](Cc1c[nH]c2ccccc12)C(=O)N[C@H](CC(C)C)C(=O)N[C@H](Cc1ccccc1)C(=O)N[C@H](CCCCN)C(=O)N[C@H](CCCCN)C(=O)N[C@H](CCCNC(=N)N)C(=O)O [Chain311D] (H-[dK][dL][dK][dW][dF][dW][dL][dF][dK][dK][dR]-OH)", "Minimum inhibitory concentration": ">128"}
{"compound": "CC(C)C[C@@H](NC(=O)[C@H](N)CCCNC(=N)N)C(=O)N[C@H](CCCCN)C(=O)N[C@H](Cc1c[nH]c2ccccc12)C(=O)N[C@H](Cc1ccccc1)C(=O)N[C@H](CC(C)C)C(=O)N[C@H](CC(C)C)C(=O)N[C@H](Cc1ccccc1)C(=O)N[C@H](CCCNC(=N)N)C(=O)N[C@H](CCCCN)C(=O)N[C@H](CCCNC(=N)N)C(=O)O [Chain308D] (H-[dR][dL][dK][dW][dF][dL][dL][dF][dR][dK][dR]-OH)", "Minimum inhibitory concentration": 128}

# input for lookup
In: Fill in the recorded Minimum inhibitory concentration for this compound, with Serratia marcescens clinical strains as test system: CC(C)C[C@@H](NC(=O)[C@H](N)CCCNC(=N)N)C(=O)N[C@H](CCCCN)C(=O)N[C@H](CCCNC(=N)N)C(=O)N[C@H](Cc1c[nH]c2ccccc12)C(=O)N[C@H](CCCNC(=N)N)C(=O)N[C@H](CC(C)C)C(=O)N[C@H](Cc1ccccc1)C(=O)N[C@H](CCCNC(=N)N)C(=O)N[C@H](CCCCN)C(=O)N[C@H](CCCNC(=N)N)C(=O)O [Chain306D] (H-[dR][dL][dK][dR][dW][dR][dL][dF][dR][dK][dR]-OH)
Out: >128
